Listing of recorded viability, T/C by entry.
- Tested on: 282377-053-R-J1-PDC complex spheroids, viability;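 note: spheroids exposed to compounds for 7 days before readout; percent of vehicle DMSO control viability with 100% = untreated-like growth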
- Assay procedure: Anticancer human tumor 282377-053-R-J1-PDC patient-derived colon adenocarcinoma cell line growth inhibition [GQUAD]
- Condition context: second compound 10 µM; first compound 0.0316 µM; stronger effect = lower value

- Molecule: "Cc1[nH]c2ccccc2c1CCNCc1ccc(/C=C/C(=O)NO)cc1 + Cc1cnc(CNC(=O)c2c(=O)c3ccc(N4CCCN(C)CC4)nc3n3c2sc2ccccc23)cn1"
  Measure unit: "%"
  viability, T/C: 37
- Molecule: "CCCS(=O)(=O)Nc1ccc(F)c(C(=O)c2c[nH]c3ncc(-c4ccc(Cl)cc4)cc23)c1F + Cc1cnc(CNC(=O)c2c(=O)c3ccc(N4CCCN(C)CC4)nc3n3c2sc2ccccc23)cn1"
  Measure unit: "%"
  viability, T/C: 31.3
- Molecule: "C=CC(=O)N1CCN(c2nc(=O)n(-c3c(C)ccnc3C(C)C)c3nc(-c4c(O)cccc4F)c(F)cc23)C(C)C1 (stereo unspecified) + Cc1cnc(CNC(=O)c2c(=O)c3ccc(N4CCCN(C)CC4)nc3n3c2sc2ccccc23)cn1"
  Measure unit: "%"
  viability, T/C: 52.2
- Molecule: "O=c1[nH]cc(F)c(=O)[nH]1 + CN(C)c1ccc(Nc2c3ccc(NC(=O)CCN4CCCC4)cc3nc3cc(NC(=O)CCN4CCCC4)ccc23)cc1"
  Measure unit: "%"
  viability, T/C: 92.8
- Molecule: "Cc1cccc(N(C)C(=O)C2C(O)CCN2c2nc(C)cc(C(F)(F)F)c2C#N)c1 (stereo unspecified) + Cc1[nH]c2ccc(F)cc2c1-c1nc2c3cccnc3c3ncccc3c2[nH]1"
  Measure unit: "%"
  viability, T/C: 47
- Molecule: "CC[C@@]1(O)C(=O)OCc2c1cc1n(c2=O)Cc2cc3c(CN(C)C)c(O)ccc3nc2-1 + Cc1cnc(CNC(=O)c2c(=O)c3ccc(N4CCCN(C)CC4)nc3n3c2sc2ccccc23)cn1"
  Measure unit: "%"
  viability, T/C: 49.2
- Molecule: "COc1cccc2c1C(=O)c1c(O)c3c(c(O)c1C2=O)CC(O)(C(=O)CO)CC3OC1CC(N)C(O)C(C)O1 (stereo unspecified) + CN(C)c1ccc(Nc2c3ccc(NC(=O)CCN4CCCC4)cc3nc3cc(NC(=O)CCN4CCCC4)ccc23)cc1"
  Measure unit: "%"
  viability, T/C: 97
- Molecule: "C=CCn1c(=O)c2cnc(Nc3ccc(N4CCN(C)CC4)cc3)nc2n1-c1cccc(C(C)(C)O)n1 + CN(C)c1ccc(Nc2c3ccc(NC(=O)CCN4CCCC4)cc3nc3cc(NC(=O)CCN4CCCC4)ccc23)cc1"
  Measure unit: "%"
  viability, T/C: 86.7
- Molecule: "O=C(NO)c1cnc(N2CCN(S(=O)(=O)c3ccc4ccccc4c3)CC2)nc1 + CN(C)c1ccc(Nc2c3ccc(NC(=O)CCN4CCCC4)cc3nc3cc(NC(=O)CCN4CCCC4)ccc23)cc1"
  Measure unit: "%"
  viability, T/C: 93
- Molecule: "O=c1[nH]cc(F)c(=O)[nH]1 + Cc1[nH]c2ccc(F)cc2c1-c1nc2c3cccnc3c3ncccc3c2[nH]1"
  Measure unit: "%"
  viability, T/C: 41.1
- Molecule: "C#Cc1c(F)ccc2cc(O)cc(-c3ncc4c(N5CC6CCC(C5)N6)nc(OCC56CCCN5CC(F)C6)nc4c3F)c12 (stereo unspecified) + Cc1cnc(CNC(=O)c2c(=O)c3ccc(N4CCCN(C)CC4)nc3n3c2sc2ccccc23)cn1"
  Measure unit: "%"
  viability, T/C: 36.8
- Molecule: "CC1COCCN1c1cc(C2(S(C)(=N)=O)CC2)nc(-c2ccnc3[nH]ccc23)n1 (stereo unspecified) + CN(C)c1ccc(Nc2c3ccc(NC(=O)CCN4CCCC4)cc3nc3cc(NC(=O)CCN4CCCC4)ccc23)cc1"
  Measure unit: "%"
  viability, T/C: 82.7
- Molecule: "O=C(NO)c1cnc(N2CCN(S(=O)(=O)c3ccc4ccccc4c3)CC2)nc1 + Cc1[nH]c2ccc(F)cc2c1-c1nc2c3cccnc3c3ncccc3c2[nH]1"
  Measure unit: "%"
  viability, T/C: 19.7
- Molecule: "Cc1cccc(N(C)C(=O)C2C(O)CCN2c2nc(C)cc(C(F)(F)F)c2C#N)c1 (stereo unspecified) + CN(C)c1ccc(Nc2c3ccc(NC(=O)CCN4CCCC4)cc3nc3cc(NC(=O)CCN4CCCC4)ccc23)cc1"
  Measure unit: "%"
  viability, T/C: 91.8
- Molecule: "Cn1ncnc1[C@H]1c2n[nH]c(=O)c3cc(F)cc(c23)N[C@@H]1c1ccc(F)cc1 + CN(C)c1ccc(Nc2c3ccc(NC(=O)CCN4CCCC4)cc3nc3cc(NC(=O)CCN4CCCC4)ccc23)cc1"
  Measure unit: "%"
  viability, T/C: 106
- Molecule: "CC(=O)O[C@H]1C(=O)[C@@]2(C)[C@H]([C@H](OC(=O)c3ccccc3)[C@]3(O)C[C@H](OC(=O)[C@H](O)[C@@H](NC(=O)c4ccccc4)c4ccccc4)C(C)=C1C3(C)C)[C@]1(OC(C)=O)CO[C@@H]1C[C@@H]2O + Cc1cnc(CNC(=O)c2c(=O)c3ccc(N4CCCN(C)CC4)nc3n3c2sc2ccccc23)cn1"
  Measure unit: "%"
  viability, T/C: 25.5
